system: CXCR6 (Homo sapiens)
Construct: endogenous in cells
Sequence (O00574 whole entry): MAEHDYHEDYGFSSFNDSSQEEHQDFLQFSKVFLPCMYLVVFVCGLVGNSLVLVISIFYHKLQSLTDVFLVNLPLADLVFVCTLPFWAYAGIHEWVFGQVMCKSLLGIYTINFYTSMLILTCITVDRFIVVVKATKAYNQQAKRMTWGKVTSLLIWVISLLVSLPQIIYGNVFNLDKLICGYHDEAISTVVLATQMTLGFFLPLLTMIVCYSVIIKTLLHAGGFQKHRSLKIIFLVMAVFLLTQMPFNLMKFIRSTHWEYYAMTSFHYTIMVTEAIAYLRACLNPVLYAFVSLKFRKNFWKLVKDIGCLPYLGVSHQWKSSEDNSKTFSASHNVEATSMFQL
test.description: CXCR6 Activated Lymphocyte Buffer Chemotaxis
conditions: read-out: Potency (IC50), CXCR6
property.label: IC50

Prompt: Quick one: give measured IC50 for Cc1cnc(C(=O)c2ccnc3[nH]ccc23)c(NS(=O)(=O)c2ccc(Cl)c(C(F)(F)F)c2)c1
Response: > 10 µM

###

system: CCR2 (Homo sapiens, UniProt P41597)
Construct: cell lines that either endogenously expressed certain chemokine receptors
Sequence (P41597 1-360 isoform P41597-2): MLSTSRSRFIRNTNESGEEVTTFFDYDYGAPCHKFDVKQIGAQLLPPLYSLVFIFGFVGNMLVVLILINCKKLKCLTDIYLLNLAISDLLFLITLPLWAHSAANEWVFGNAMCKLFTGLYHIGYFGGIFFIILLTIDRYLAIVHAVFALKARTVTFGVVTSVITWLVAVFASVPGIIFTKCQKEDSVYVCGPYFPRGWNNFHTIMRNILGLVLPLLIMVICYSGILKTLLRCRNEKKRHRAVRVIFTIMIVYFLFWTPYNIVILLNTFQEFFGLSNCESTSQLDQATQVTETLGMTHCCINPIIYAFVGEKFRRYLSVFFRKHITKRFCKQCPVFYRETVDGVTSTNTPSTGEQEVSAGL
test.description: CCR2 ThP1 Cell Chemotaxis
conditions: read-out: Potency (IC50), CCR2
Method: Chemotaxis, calcium mobilization, and radio-ligand binding assays were conducted as previously described (Sullivan et al, 2013; Walters et al, 2010). Inhibition values (IC50) were calculated using non-linear regression with a one-site competition model (GraphPad Prism, GraphPad Software, La Jolla, Calif.). […] Urinary albumin was measured by ELISA (Bethyl Labs, Montgomery, Tex.). Urinary and serum creatinine was measured by LC-MS/MS at ChemoCentryx. […]
property.label: pIC50
Interpret pIC50 as the negative base-10 log of the concentration measured in mol/L.

Prompt: Quick one: give measured pIC50 for Cc1cnc(C(=O)c2ccnc3[nH]ccc23)c(NS(=O)(=O)c2ccc(Cl)c(C(F)(F)F)c2)c1
Response: 9.30
